Biological target: hNaV1.5 (Homo sapiens (Human), UniProt Q14524)
Sequence (Q14524 whole entry): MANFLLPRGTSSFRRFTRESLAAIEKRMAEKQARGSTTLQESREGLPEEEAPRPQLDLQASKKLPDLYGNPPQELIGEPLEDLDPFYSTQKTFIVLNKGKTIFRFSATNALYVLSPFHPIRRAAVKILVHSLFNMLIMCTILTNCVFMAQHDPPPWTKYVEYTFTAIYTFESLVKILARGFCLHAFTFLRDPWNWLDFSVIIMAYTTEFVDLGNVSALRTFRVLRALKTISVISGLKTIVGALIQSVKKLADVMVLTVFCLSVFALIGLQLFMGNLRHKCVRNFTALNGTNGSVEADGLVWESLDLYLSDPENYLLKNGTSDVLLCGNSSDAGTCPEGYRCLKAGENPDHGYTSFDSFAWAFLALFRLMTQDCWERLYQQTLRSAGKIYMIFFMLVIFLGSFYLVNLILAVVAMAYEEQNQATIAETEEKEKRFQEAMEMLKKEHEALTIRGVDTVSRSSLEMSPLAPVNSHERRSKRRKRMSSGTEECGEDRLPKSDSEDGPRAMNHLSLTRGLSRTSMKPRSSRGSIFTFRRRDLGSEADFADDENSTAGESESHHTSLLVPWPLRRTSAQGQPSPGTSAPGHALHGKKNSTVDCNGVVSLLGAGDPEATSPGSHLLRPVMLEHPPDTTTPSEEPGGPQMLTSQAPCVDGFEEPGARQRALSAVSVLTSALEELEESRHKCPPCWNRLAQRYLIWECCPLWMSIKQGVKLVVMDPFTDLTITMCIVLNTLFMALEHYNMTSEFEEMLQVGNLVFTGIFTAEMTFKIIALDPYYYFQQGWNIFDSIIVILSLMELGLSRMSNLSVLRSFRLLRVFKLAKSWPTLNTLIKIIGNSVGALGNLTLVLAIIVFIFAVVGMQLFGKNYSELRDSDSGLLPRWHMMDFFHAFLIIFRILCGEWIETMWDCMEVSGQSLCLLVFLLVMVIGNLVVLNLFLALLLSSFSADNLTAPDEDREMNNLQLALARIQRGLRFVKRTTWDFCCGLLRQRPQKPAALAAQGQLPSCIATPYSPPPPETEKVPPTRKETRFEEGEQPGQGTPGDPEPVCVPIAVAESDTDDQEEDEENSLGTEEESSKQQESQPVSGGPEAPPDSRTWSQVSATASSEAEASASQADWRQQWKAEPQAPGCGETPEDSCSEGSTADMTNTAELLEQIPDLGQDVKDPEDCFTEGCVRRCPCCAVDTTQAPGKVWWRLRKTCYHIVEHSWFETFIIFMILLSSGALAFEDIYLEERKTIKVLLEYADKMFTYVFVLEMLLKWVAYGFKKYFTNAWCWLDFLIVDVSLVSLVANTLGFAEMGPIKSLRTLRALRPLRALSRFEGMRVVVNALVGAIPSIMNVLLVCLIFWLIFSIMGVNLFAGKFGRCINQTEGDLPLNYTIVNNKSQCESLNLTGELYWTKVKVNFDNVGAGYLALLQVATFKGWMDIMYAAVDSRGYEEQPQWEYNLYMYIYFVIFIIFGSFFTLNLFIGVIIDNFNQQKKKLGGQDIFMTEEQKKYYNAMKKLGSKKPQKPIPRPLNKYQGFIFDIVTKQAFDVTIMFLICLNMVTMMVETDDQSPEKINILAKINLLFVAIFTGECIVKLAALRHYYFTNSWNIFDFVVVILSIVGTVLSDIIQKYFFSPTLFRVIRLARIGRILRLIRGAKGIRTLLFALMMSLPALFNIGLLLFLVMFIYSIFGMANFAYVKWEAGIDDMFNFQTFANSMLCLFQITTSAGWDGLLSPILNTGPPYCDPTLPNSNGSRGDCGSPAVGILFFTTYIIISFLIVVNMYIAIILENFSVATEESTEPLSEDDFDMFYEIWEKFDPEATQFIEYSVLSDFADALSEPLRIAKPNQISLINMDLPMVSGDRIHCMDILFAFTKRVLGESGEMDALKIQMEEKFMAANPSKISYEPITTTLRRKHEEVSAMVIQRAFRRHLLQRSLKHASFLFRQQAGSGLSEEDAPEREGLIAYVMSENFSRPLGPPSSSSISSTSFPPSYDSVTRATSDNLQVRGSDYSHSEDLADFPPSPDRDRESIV
Assay: Patch voltage clamp electrophysiology, inactivated state block of NaV1.5 in HEK-293 cells
Format: cell-based
Conditions: HEK cells with β1 subunit, read-out: hNaV 1.5 IC50
The entries below come with measured IC50 values attached.
assay_metric: IC50 (nM)

{"columns": ["molecule", "assay_metric", "relation_qualifier", "reported_value"],
 "data": [
  ["CC(C)Oc1ncc(Oc2cc(F)c(C(=O)NS(=O)(=O)N3CCC3)cc2C2CC2)cc1Cl [Preparation 87]", "IC50", "=", 1200],
  ["CNS(=O)(=O)NC(=O)c1cc(Cl)c(Oc2cnc(OCC(C)C)c(Cl)c2)cc1F [Preparation 6]", "IC50", "=", 7180],
  ["CC(C)Oc1ncc(Oc2ccc(C(=O)NS(=O)(=O)N3CCC3)cc2C2CC2)cc1Cl [Preparation 84]", "IC50", "=", 3500],
  ["C=Cc1cc(C(=O)NS(=O)(=O)N2CCC2)c(F)cc1Oc1cnc(OC(C)C)c(Cl)c1 [Preparation 91]", "IC50", "=", 2600],
  ["CC(C)COc1ncc(Oc2cc(F)c(C(=O)NS(=O)(=O)N(C)C)cc2Cl)cc1Cl [Preparation 3]", "IC50", "=", 2180],
  ["COc1ncccc1-c1cc(C(=O)NS(=O)(=O)N2CCC2)ccc1Oc1cnc(OC(C)C)c(Cl)c1 [Preparation 86]", "IC50", ">", 10000]
]}

---

The entries below come with measured IC50 values attached.
Target: hNaV1.7 (Homo sapiens (Human))
Assay: Patch voltage clamp electrophysiology, inactivated state block of NaV1.7 in HEK-293 cells
Type: cell-based
Details: HEK cells with β1 subunit, read-out: hNaV 1.7 IC50

{"columns": ["molecule_smiles", "IC50 [nM]"],
 "data": [
  ["CC(C)Oc1ncc(OCc2cc(F)c(C(=O)NS(=O)(=O)N3CCC3)cc2Cl)cc1Cl", 6.1],
  ["CC(C)COc1ncc(Oc2cc(F)c(C(=O)NS(=O)(=O)N3CCCC3)cc2Cl)cc1Cl", 44],
  ["C=Cc1cc(C(=O)NS(=O)(=O)N2CCC2)c(F)cc1Oc1cnc(OCC(F)(F)F)c(Cl)c1", 4.3],
  ["CN(C)S(=O)(=O)NC(=O)c1cc(Cl)c(Oc2cnc(OCC(F)(F)C(F)F)c(Cl)c2)cc1F", 34]
]}

---

The entries below come with measured IC50 values attached.
Target: hNaV1.7 (Homo sapiens (Human), UniProt Q15858)
Sequence (Q15858 whole entry, looked up): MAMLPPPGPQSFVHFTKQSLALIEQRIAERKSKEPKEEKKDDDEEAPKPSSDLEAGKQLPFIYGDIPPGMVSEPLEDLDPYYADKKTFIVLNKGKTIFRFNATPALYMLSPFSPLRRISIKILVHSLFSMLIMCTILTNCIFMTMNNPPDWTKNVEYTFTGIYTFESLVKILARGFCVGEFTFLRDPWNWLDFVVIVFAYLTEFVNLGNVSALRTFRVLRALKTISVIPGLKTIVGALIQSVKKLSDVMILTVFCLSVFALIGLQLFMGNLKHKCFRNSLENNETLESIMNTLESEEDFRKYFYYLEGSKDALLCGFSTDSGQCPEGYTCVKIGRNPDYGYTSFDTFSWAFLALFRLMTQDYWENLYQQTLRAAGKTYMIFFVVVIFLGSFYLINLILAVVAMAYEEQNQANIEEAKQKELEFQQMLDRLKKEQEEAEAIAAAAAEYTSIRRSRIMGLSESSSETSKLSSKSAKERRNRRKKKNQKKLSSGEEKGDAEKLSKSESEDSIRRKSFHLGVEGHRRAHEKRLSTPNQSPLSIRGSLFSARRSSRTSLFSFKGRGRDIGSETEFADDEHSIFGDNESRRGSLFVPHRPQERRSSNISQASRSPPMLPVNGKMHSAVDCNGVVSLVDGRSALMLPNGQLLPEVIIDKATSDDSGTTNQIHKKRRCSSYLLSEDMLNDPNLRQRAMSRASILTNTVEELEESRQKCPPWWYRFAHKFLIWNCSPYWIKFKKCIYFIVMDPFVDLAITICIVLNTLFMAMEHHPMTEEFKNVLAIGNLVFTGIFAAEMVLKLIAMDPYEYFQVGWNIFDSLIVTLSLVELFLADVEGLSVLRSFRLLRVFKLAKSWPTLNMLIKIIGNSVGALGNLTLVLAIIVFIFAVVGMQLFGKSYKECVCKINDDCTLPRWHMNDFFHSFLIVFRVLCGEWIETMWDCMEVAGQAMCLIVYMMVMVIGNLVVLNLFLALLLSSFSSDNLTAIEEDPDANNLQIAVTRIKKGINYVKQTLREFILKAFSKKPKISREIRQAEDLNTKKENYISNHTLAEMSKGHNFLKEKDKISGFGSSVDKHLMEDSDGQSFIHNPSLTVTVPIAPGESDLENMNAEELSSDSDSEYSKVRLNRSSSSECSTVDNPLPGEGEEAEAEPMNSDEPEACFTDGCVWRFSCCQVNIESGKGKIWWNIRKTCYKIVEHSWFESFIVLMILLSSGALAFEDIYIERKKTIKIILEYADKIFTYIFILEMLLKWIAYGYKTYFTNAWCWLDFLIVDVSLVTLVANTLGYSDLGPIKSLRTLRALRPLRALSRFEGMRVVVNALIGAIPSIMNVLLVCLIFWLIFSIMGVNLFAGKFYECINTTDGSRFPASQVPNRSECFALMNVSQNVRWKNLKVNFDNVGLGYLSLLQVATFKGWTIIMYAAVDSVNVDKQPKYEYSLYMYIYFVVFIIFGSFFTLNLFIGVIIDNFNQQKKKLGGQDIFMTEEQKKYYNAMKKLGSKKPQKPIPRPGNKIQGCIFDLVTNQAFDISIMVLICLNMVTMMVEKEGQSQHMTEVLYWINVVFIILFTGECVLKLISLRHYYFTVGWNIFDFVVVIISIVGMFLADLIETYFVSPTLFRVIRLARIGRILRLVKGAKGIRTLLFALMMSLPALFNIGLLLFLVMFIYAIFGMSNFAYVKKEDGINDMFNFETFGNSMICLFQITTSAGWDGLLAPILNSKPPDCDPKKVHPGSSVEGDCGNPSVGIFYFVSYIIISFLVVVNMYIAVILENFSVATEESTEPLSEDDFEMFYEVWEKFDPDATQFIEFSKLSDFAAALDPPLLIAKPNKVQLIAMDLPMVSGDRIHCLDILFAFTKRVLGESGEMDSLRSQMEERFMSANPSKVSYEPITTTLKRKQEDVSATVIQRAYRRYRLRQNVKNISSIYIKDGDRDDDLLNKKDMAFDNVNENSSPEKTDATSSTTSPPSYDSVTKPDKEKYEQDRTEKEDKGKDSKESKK
Sequence (Q07699 whole entry partner, looked up): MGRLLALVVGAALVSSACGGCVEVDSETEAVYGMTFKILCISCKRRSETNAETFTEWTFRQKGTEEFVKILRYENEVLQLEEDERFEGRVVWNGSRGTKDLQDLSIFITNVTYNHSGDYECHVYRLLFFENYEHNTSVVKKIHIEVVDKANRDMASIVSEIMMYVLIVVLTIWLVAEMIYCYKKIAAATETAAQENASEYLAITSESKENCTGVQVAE
Assay: Competitive binding of tritiated compound to membranes from cells expressing hNav1.7 and the β1 subunit
Conditions: 100 pM [3H]compound, 18 h, room temperature; read-out: NaV1.7 395 Membrane Binding IC50
Protocol: Tritiated compound binding to membranes isolated from cells that heterologously express hNav1.7 and the β1 subunit Preparation of membranes containing recombinantly expressed sodium channels: Frozen recombinant cell pellets were thawed on ice and diluted to 4 times the cell pellet weight with ice cold 50 mM Tris HCl, pH 7.4 buffer. […] Protein concentrations were determined by Bradford Assay and the membranes were stored at −80° C. […]

{"columns": ["molecule_smiles", "units_text", "IC50"],
 "data": [
  ["O=C(NS(=O)(=O)NC1CCC1)c1cc(Cl)c(Oc2ccc(OC(F)(F)F)c(Cl)c2)cc1F", "nM", 108],
  ["COc1ccc(CCOc2cc(F)c(C(=O)NS(=O)(=O)N(C)C)cc2Cl)cc1", "nM", 2400],
  ["O=C(NS(=O)(=O)N1CCCC1)c1cc(Cl)c(Oc2cnc(OCC(F)(F)C(F)F)c(Cl)c2)cc1F", "nM", 26],
  ["CN(C)S(=O)(=O)NC(=O)c1cc(Cl)c(Oc2ccc3ncccc3c2)cc1F", "nM", 9600],
  ["CC(C)COc1ncc(Oc2cc(F)c(C(=O)NS(=O)(=O)N3CCCCC3)cc2Cl)cc1Cl", "nM", 58.4],
  ["CN(C)S(=O)(=O)NC(=O)c1cc(Cl)c(Oc2cccc3cnccc23)cc1F", "nM", 20000],
  ["CC(C)COc1ncc(Oc2cc(F)c(C(=O)NS(=O)(=O)N3CCC3)cc2Cl)cc1Cl", "nM", 9.2],
  ["CC(C)COc1ncc(Oc2cc(F)c(C(=O)NS(=O)(=O)N(C)C)cc2C#N)cc1Cl", "nM", 93],
  ["CNS(=O)(=O)NC(=O)c1ccc(Oc2cnc(OC(C)C)c(Cl)c2)c(-c2cccnc2OC)c1", "nM", 43],
  ["CN(C)S(=O)(=O)NC(=O)c1cc(Cl)c(Oc2cnc(N3CCCCC3)c(Cl)c2)cc1F", "nM", 140],
  ["CN(C)S(=O)(=O)NC(=O)c1cc(Cl)c(Oc2cccc3ccccc23)cc1F", "nM", 5200],
  ["CN(C)S(=O)(=O)NC(=O)c1cc(Cl)c(Oc2ccc(S(C)(=O)=O)cc2)cc1F", "nM", 20000],
  ["CC(C)COc1ncc(Oc2cc(F)c(C(=O)NS(=O)(=O)NCc3cccnc3)cc2Cl)cc1Cl", "nM", 3580],
  ["CC(C)COc1ncc(Oc2cc(F)c(C(=O)NS(=O)(=O)NCc3ccccc3)cc2Cl)cc1Cl", "nM", 4180],
  ["CC(C)COc1ncc(Oc2cc(F)c(C(=O)NS(=O)(=O)N3CCN(C(=O)OC(C)(C)C)CC3)cc2Cl)cc1Cl", "nM", 3800],
  ["CN(C)S(=O)(=O)NC(=O)c1cc(F)c(Oc2ccc(OC(F)(F)F)c(Cl)c2)cc1F", "nM", 860],
  ["CNS(=O)(=O)NC(=O)c1cc(Cl)c(COc2ccc(Cl)c(Cl)c2)cc1F", "nM", 28],
  ["O=C(NS(=O)(=O)N1CCC1)c1cc(Cl)c(COc2ccc(Cl)c(Cl)c2)cc1F", "nM", 51],
  ["O=C(NS(=O)(=O)N1CCC1)c1ccc(Oc2ccc(OC(F)(F)F)c(Cl)c2)c(C2(O)COC2)c1", "nM", 20200],
  ["O=C(NS(=O)(=O)N1CCC1)c1cc(Cl)c(COc2ccc(Cl)c(C(F)(F)F)c2)cc1F", "nM", 26],
  ["O=C(NS(=O)(=O)c1cccnc1)c1cc(Cl)c(Oc2cnc(OCC(F)(F)C(F)F)c(Cl)c2)cc1F", "nM", 950],
  ["CC(C)COc1ncc(Oc2cc(F)c(C(=O)NS(=O)(=O)N(C)Cc3ccccc3)cc2Cl)cc1Cl", "nM", 4440],
  ["CC(C)Oc1ncc(Oc2ccc(C(=O)NS(=O)(=O)N3CCC3)cc2C2CC2)cc1Cl", "nM", 25],
  ["CN(C)S(=O)(=O)NC(=O)c1cc(Cl)c(COc2ccc(Cl)c(Cl)c2)cc1F", "nM", 174],
  ["C=Cc1cc(C(=O)NS(=O)(=O)N2CCC2)c(F)cc1Oc1cnc(OC(C)C)c(Cl)c1", "nM", 5],
  ["CC(C)COc1ncc(Oc2cc(F)c(C(=O)NS(=O)(=O)N(C)C)cc2Cl)cc1Cl", "nM", 24.8],
  ["CN(C)S(=O)(=O)NC(=O)c1cc(Cl)c(Oc2cc(OC(F)(F)F)ccc2F)cc1F", "nM", 340],
  ["CC(C)COc1ncc(Oc2cc(F)c(C(=O)NS(N)(=O)=O)cc2Cl)cc1Cl", "nM", 70.8],
  ["CNS(=O)(=O)NC(=O)c1cc(C2CC2)c(Oc2cnc(OC(C)C)c(Cl)c2)cc1F", "nM", 6],
  ["Cc1cc2cc(Oc3cc(F)c(C(=O)NS(=O)(=O)N(C)C)cc3Cl)ccc2[nH]1", "nM", 5200],
  ["CC(C)Oc1ncc(Oc2cc(F)c(C(=O)NS(=O)(=O)N3CCC3)cc2C2(O)COC2)cc1Cl", "nM", 1300]
]}
